Entry source: the supplement of paper PMC5412046

# Test system: SB.msgc-1
# PROCEDURE SUMMARY: area under the dose-response curve of % viability (trapezoidal, 11 doses) (% viability x log10 concentration); higher = less cytotoxic
# CONDITION LABEL: SB.msgc-1 (sporadic gastric cancer)
Response key: Condition met means area under the dose-response curve >= 500; Condition not met means area under the dose-response curve < 500.

Please review the following examples before continuing.
INSERT INTO results (compound, label_value) VALUES
  ('CN(C)Cc1c(C(=O)NCCOc2ccc(C(=O)NO)cc2)oc2ccccc12 [Abexinostat] (top concentration 46.0829 µM)', 'Condition not met'),
  ('C=C(C)[C@H]1Cc2c(ccc3c2O[C@@H]2COc4cc(OC)c(OC)cc4[C@@H]2C3=O)O1 [Rotenone] (top concentration 46.0829 µM)', 'Condition not met'),
  ('CC1(C)[C@@H](O[C@H]2O[C@H](C(=O)O)[C@@H](O)[C@H](O)[C@H]2O[C@@H]2O[C@H](C(=O)O)[C@@H](O)[C@H](O)[C@H]2O)CC[C@]2(C)[C@H]3C(=O)C=C4[C@@H]5C[C@@](C)(C(=O)O)CC[C@]5(C)CC[C@@]4(C)[C@]3(C)CC[C@@H]12 [Glycyrrhizic acid] (top concentration 46.0829 µM)', 'Condition met');

Form field: area under the dose-response curve at least 500? Entry: CCNC(=O)[C@H]1O[C@@H](n2cnc3c(N)nc(NCCc4ccc(CCC(=O)O)cc4)nc32)[C@H](O)[C@@H]1O (top concentration 46.0829 µM)
Condition not met

Form field: area under the dose-response curve at least 500? Entry: N#Cc1c(NC(=O)c2cccc3ccccc23)sc2c1CCCC2 [TCS JNK 5a] (top concentration 46.0829 µM)
Condition not met

Form field: area under the dose-response curve at least 500? Entry: CCC(CCCC)COC(=O)C(\C#N)=C(\c1ccccc1)c2ccccc2 (centres undefined) [Octocrylene] (top concentration 46.0829 µM)
Condition not met
